# target entity: p53-Y220C mutant protein (Homo sapiens, UniProt P04637, Y220C)
# Construct: The recombinant Y220C p53 DBD protein with his-tag
# procedure text: In vitro DNA binding activity assay (TR-FRET)
# Assay type: biochemical
# condition description: concentration required to increase the binding activity of protein to DNA by 50%
measured attribute: SC150 (nM)
Numbers only, in nM.

compound: COc1cncc(C(=O)NCC#Cc2nn3c(N[C@@H]4CCN(C)C[C@@H]4F)cccc3c2CC(F)(F)F)c1
target entity: p53-Y220C mutant protein (Homo sapiens, UniProt P04637, Y220C)
readout unit: nM
val: 41
--
compound: Cc1cc(C(=O)NCC#Cc2nn3c(N[C@@H]4CCN(C)C[C@@H]4F)cccc3c2CC(F)(F)F)[nH]c1C
target entity: p53-Y220C mutant protein (Homo sapiens, UniProt P04637, Y220C)
readout unit: nM
val: 44

Required: SC150, one value per compound below.
1. CN1CC[C@@H](Nc2cccc3c(CC(F)(F)F)c(C#CCNC(=O)c4cc(F)n(C)c4)nn23)[C@@H](F)C1
2. CC(C)(C)n1ncc(C(=O)NCC#Cc2nn3c(NC4CCOCC4)cccc3c2CC(F)(F)F)c1N
3. CN1CC[C@@H](Nc2cccc3c(CC(F)(F)F)c(C#CCNC(=O)c4cnn(CC(F)(F)F)c4)nn23)[C@@H](F)C1
4. CN1CC[C@@H](Nc2cccc3c(CC(F)(F)F)c(C#CCNC(=O)c4ccc(C(C)(C)O)nc4)nn23)[C@@H](F)C1
5. CN1CCC(Nc2cccc3c(CC(F)(F)F)c(C#CCNC(=O)c4cnn(C(C)(C)C)c4N)nn23)C1 (stereo not shown)

Resp:
19
49
18
22
30

----------
# procedure text: Pharmacokinetic study in beagles
# Type: in vivo
# condition description: beagle, dog, plasma, 2 mg/kg, IV 1mpk/PO 2mpk
measured attribute: bioavailability (%)
Answers are plain numbers, in %.

Req: What measured bioavailability goes with CNC(=O)c1ccc(NCC#Cc2cc3c(N[C@@H]4CCN(C)C[C@@H]4F)cccc3n2CC(F)(F)F)c(OC)c1 [Control compound, reference compound] ?
Resp: 82

----------
# procedure text: Associated plasma PK in the LU5269 xenograft study
# Type: in vivo, NOD/SCID mice
# condition description: mouse, 100 mg/kg; 100 mpk, PO, QD*21, plasma after the last administration
measured attribute: Cmax (µg/mL)
Give bare numbers, in µg/mL.

Req: What measured Cmax goes with `CN1CC[C@@H](Nc2cccc3c(CC(F)(F)F)c(C#CCNC(=O)c4cnn(C(C)(C)C)c4N)nn23)[C@@H](F)C1` ?
Resp: 4.44

----------
# procedure text: Associated plasma PK in the LU5269 xenograft study
# Format: in vivo, NOD/SCID mice
# condition description: mouse, 75 mg/kg; 75mpk, PO, QD*21, plasma after the last administration
measured attribute: Cmax (ng/mL)
Give bare numbers, in ng/mL.

Req: What measured Cmax goes with `CN1CC[C@@H](Nc2cccc3c(CC(F)(F)F)c(C#CCNC(=O)c4cnn(C(C)(C)C)c4N)nn23)[C@@H](F)C1` ?
Resp: 2590

----------
# procedure text: Associated plasma PK in the LU5269 xenograft study
# Type: in vivo, NOD/SCID mice
# condition description: NOD/SCID, mouse, 100 mg/kg; 100 mpk, PO, QD*21, plasma after the last administration
measured attribute: Cmax
Give the value; after it, write the unit.

Req: What measured Cmax goes with CNC(=O)c1ccc(NCC#Cc2cc3c(N[C@@H]4CCN(C)C[C@@H]4F)cccc3n2CC(F)(F)F)c(OC)c1 [Control compound, reference compound] ?
Resp: 24300 ng/mL
